Field: MIC50. Provide a value for each of the compounds that follow.
- System: Streptococcus pneumonia (5 strains)
- test_name: MIC range, broader panel of Quotient Bioresearch strains (Table 3)
- reported_conditions: Streptococcus pneumoniae, read-out: MIC Range Median, Streptococcus pneumonia (5 strains)
Answer in µg/mL, number only, no unit symbol.

Quote MIC50 with test system Streptococcus pneumonia (5 strains) for Cc1c(-c2ccc(N)c(F)c2)c(F)cn2c(=O)c(C(=O)[O-])cc(C3CC3)c12.[K+] [Example 1 K salt]
0.5

Provide MIC50, system Streptococcus pneumonia (5 strains), entry Cc1c(-c2ccncc2)ccn2c(=O)c(C(=O)[O-])cc(C3CC3)c12.[K+] [Example 16 K salt]
0.5

Under Streptococcus pneumonia (5 strains), report MIC50 for Cc1c(-c2ccc(N)c(F)c2)ccn2c(=O)c(C(=O)[O-])cc(C3CC3)c12.[K+] [Example 2 K salt]
0.12

Using Streptococcus pneumonia (5 strains) as the test system, report measured MIC50 of Cc1c(-c2ccc(N)cc2)c(F)cn2c(=O)c(C(=O)[O-])cc(C3CC3)c12.[K+] [Example 5 K salt] .
0.12

Provide MIC50, system Streptococcus pneumonia (5 strains), entry Cc1c(-c2cc(F)c(N)cc2F)ccn2c(=O)c(C(=O)[O-])cc(C3CC3)c12.[K+] [Example 28 K salt]
0.06
